test system: A549; assay: Cytotoxicity against human A549 cells assessed as reduction in cell viability using compound addition to cell culture cells in log phase of growth and incubated for 48 hrs by MTT assay; type: functional, cell-based; conditions: Homo sapiens, A549, 48 h; read-out: IC50
pIC50: −log10 of the molar value.
Classify by measured pIC50: YES if it is equal to or exceeds 5, NO if it is smaller.

{"columns": ["Compound structure", "Target system", "Class assignment"],
 "data": [
  ["COCC1=C(C)C[C@H]([C@@H](C)[C@H]2CC[C@H]3[C@@H]4C[C@H]5O[C@]56[C@@H](O)C=CC(=O)[C@]6(C)[C@H]4CC[C@]23C)OC1=O", "A549", "YES"],
  ["CC1=C(CO)C(=O)O[C@@H]([C@@H](C)[C@H]2CC[C@H]3[C@@H]4C[C@H]5O[C@]56[C@@H](O)[C@@H](O)CC(=O)[C@]6(C)[C@H]4CC[C@]23C)C1", "A549", "NO"],
  ["CC1=C(C=O)C(=O)O[C@@H]([C@@H](C)[C@H]2CC[C@H]3[C@@H]4C[C@H]5O[C@]56C(=O)C=CC(=O)[C@]6(C)[C@H]4CC[C@]23C)C1", "A549", "NO"],
  ["CCCCCCCC(=O)OCC1=C(C)C[C@H]([C@@H](C)[C@H]2CC[C@H]3[C@@H]4C[C@H]5O[C@]56[C@@H](OC(=O)CCCCCCC)C=CC(=O)[C@]6(C)[C@H]4CC[C@]23C)OC1=O", "A549", "NO"],
  ["CC1=C(CO)C(=O)O[C@@H]([C@@H](C)[C@H]2CC[C@H]3[C@@H]4C[C@H]5O[C@]56[C@@H](O)CCC(=O)[C@]6(C)[C@H]4CC[C@]23C)C1", "A549", "NO"]
]}

Enquiry: Decide: pIC50 of "COc1ccc(C(=O)OCC2=C(C)C[C@H]([C@@H](C)[C@H]3CC[C@H]4[C@@H]5C[C@H](Cl)[C@]6(O)[C@@H](OC(=O)c7ccc(OC)cc7)C=CC(=O)[C@]6(C)[C@H]5CC[C@]34C)OC2=O)cc1" >= 5?
Return: NO

Enquiry: Decide: pIC50 of "CC(=O)OCC1=C(C)C[C@H]([C@@H](C)[C@H]2CC[C@H]3[C@@H]4C[C@H]5O[C@]56C(=O)C=CC(=O)[C@]6(C)[C@H]4CC[C@]23C)OC1=O" >= 5?
Return: NO

Enquiry: Decide: pIC50 of "CCC(=O)OCC1=C(C)C[C@H]([C@@H](C)[C@H]2CC[C@H]3[C@@H]4C[C@H]5O[C@]56[C@@H](OC(=O)CC)C=CC(=O)[C@]6(C)[C@H]4CC[C@]23C)OC1=O" >= 5?
Return: YES

Enquiry: Decide: pIC50 of "CCCC(=O)OCC1=C(C)C[C@H]([C@@H](C)[C@H]2CC[C@H]3[C@@H]4C[C@H]5O[C@]56C(=O)C=CC(=O)[C@]6(C)[C@H]4CC[C@]23C)OC1=O" >= 5?
Return: YES

---

tested on: MCF7; test: Cytotoxicity against human MCF7 cells assessed as reduction in cell viability using compound addition to cell culture cells in log phase of growth and incubated for 48 hrs by MTT assay; format: functional, cell-based; conditions: Homo sapiens, MCF7, 48 h; read-out: IC50
IC50 for assorted molecules
Enter your answer as a number in nM; do not include the unit.

{"columns": ["Compound structure", "IC50 [nM]"],
 "data": [
  ["CCC(=O)OCC1=C(C)C[C@H]([C@@H](C)[C@H]2CC[C@H]3[C@@H]4C[C@H]5O[C@]56C(=O)C=CC(=O)[C@]6(C)[C@H]4CC[C@]23C)OC1=O", 2300],
  ["CC1=C(COC(=O)c2ccccc2)C(=O)O[C@@H]([C@@H](C)[C@H]2CC[C@H]3[C@@H]4C[C@H]5O[C@]56[C@@H](O)C=CC(=O)[C@]6(C)[C@H]4CC[C@]23C)C1", 700]
]}

// switching to the query molecule
For this molecule ( "COCC1=C(C)C[C@H]([C@@H](C)[C@H]2CC[C@H]3[C@@H]4C[C@H]5O[C@]56[C@@H](O)[C@@H](OC)CC(=O)[C@]6(C)[C@H]4CC[C@]23C)OC1=O" ), measured IC50 is 21600

---

test system: MCF7; assay: Cytotoxicity against human MCF7 cells assessed as reduction in cell viability using compound addition to cell culture cells in log phase of growth and incubated for 48 hrs by MTT assay; format: functional, cell-based; conditions: Homo sapiens, MCF7, 48 h; read-out: IC50
Readout kind: IC50 (µM)
Enter your answer as a number in µM; do not include the unit.

# count of solved cases: 3
{"columns": ["Compound structure", "Measurement unit", "IC50"],
 "data": [
  ["CC1=C(CCl)C(=O)O[C@@H]([C@@H](C)[C@H]2CC[C@H]3[C@@H]4C[C@H]5O[C@]56[C@H](Cl)C=CC(=O)[C@]6(C)[C@H]4CC[C@]23C)C1", "µM", 4.8],
  ["COc1ccc(C(=O)OCC2=C(C)C[C@H]([C@@H](C)[C@H]3CC[C@H]4[C@@H]5C[C@H](Cl)[C@]6(O)[C@@H](OC(=O)c7ccc(OC)cc7)C=CC(=O)[C@]6(C)[C@H]5CC[C@]34C)OC2=O)cc1", "µM", 4.5],
  ["CC1=C(COC(=O)c2ccc(Br)cc2)C(=O)O[C@@H]([C@@H](C)[C@H]2CC[C@H]3[C@@H]4C[C@H]5O[C@]56[C@@H](O)C=CC(=O)[C@]6(C)[C@H]4CC[C@]23C)C1", "µM", 2.3]
]}

For this compound ( "COCC1=C(C)C[C@H]([C@@H](C)[C@H]2CC[C@H]3[C@@H]4C[C@H]5O[C@]56[C@@H](O)C=CC(=O)[C@]6(C)[C@H]4CC[C@]23C)OC1=O" ), measured IC50 is 1.9

For this compound ( "CCCCCCCC(=O)OCC1=C(C)C[C@H]([C@@H](C)[C@H]2CC[C@H]3[C@@H]4C[C@H](Cl)[C@]5(O)[C@@H](O)C=CC(=O)[C@]5(C)[C@H]4CC[C@]23C)OC1=O" ), measured IC50 is 13.8

---

IC50 for assorted molecules
tested on: A549; assay: Cytotoxicity against human A549 cells assessed as reduction in cell viability using compound addition to cell culture cells in log phase of growth and incubated for 48 hrs by MTT assay; assay type: functional, cell-based; conditions: Homo sapiens, A549, 48 h; read-out: IC50
Enter your answer as a number in µM; do not include the unit.

{"columns": ["Compound structure", "IC50, µM"],
 "data": [
  ["CC(=O)OCC1=C(C)C[C@H]([C@@H](C)[C@H]2CC[C@H]3[C@@H]4C[C@H](Cl)[C@]5(O)[C@@H](O)C=CC(=O)[C@]5(C)[C@H]4CC[C@]23C)OC1=O", 17.1]
]}

For this molecule ( "CC1=C(CO)C(=O)O[C@@H]([C@@H](C)[C@H]2CC[C@H]3[C@@H]4C[C@H](Cl)[C@]5(O)[C@@H](O)C=CC(=O)[C@]5(C)[C@H]4CC[C@]23C)C1" ), measured IC50 is 16.1

---

system: A549; assay: Cytotoxicity against human A549 cells assessed as reduction in cell viability using compound addition to cell culture cells in log phase of growth and incubated for 48 hrs by MTT assay; assay type: functional, cell-based; details: Homo sapiens, A549, 48 h; read-out: IC50
IC50 for assorted molecules
Enter your answer as a number in µM; do not include the unit.

# count of solved cases: 5
{"columns": ["Molecule", "IC50, µM"],
 "data": [
  ["CC1=C(COC(=O)c2ccoc2)C(=O)O[C@@H]([C@@H](C)[C@H]2CC[C@H]3[C@@H]4C[C@H]5O[C@]56[C@@H](O)C=CC(=O)[C@]6(C)[C@H]4CC[C@]23C)C1", 3.3],
  ["CC1=C(COC(=O)CBr)C(=O)O[C@@H]([C@@H](C)[C@H]2CC[C@H]3[C@@H]4C[C@H]5O[C@]56[C@@H](O)C=CC(=O)[C@]6(C)[C@H]4CC[C@]23C)C1", 4.8],
  ["CO[C@H]1C=CC(=O)[C@]2(C)[C@H]3CC[C@]4(C)[C@@H]([C@H](C)[C@H]5CC(C)=C(CO)C(=O)O5)CC[C@H]4[C@@H]3C[C@H]3O[C@]132", 4.4],
  ["CCCC(=O)OCC1=C(C)C[C@H]([C@@H](C)[C@H]2CC[C@H]3[C@@H]4C[C@H]5O[C@]56[C@@H](O)C=CC(=O)[C@]6(C)[C@H]4CC[C@]23C)OC1=O", 2.2],
  ["CC(=O)OCC1=C(C)C[C@H]([C@@H](C)[C@H]2CC[C@H]3[C@@H]4C[C@H]5O[C@]56[C@@H](OC(=O)c5ccc(Br)cc5)C=CC(=O)[C@]6(C)[C@H]4CC[C@]23C)OC1=O", 1.7]
]}

// switching to the query molecule
For this molecule ( "CC1=C(COC(=O)C(C)(C)C)C(=O)O[C@@H]([C@@H](C)[C@H]2CC[C@H]3[C@@H]4C[C@H]5O[C@]56[C@@H](O)C=CC(=O)[C@]6(C)[C@H]4CC[C@]23C)C1" ), measured IC50 is 2.1
